- SYSTEM_TESTED: Casein kinase I isoform delta (Homo sapiens); further: in the data inactive means no Kd found up to 30 µM
- Sequence (P48730 whole entry, canonical isoform): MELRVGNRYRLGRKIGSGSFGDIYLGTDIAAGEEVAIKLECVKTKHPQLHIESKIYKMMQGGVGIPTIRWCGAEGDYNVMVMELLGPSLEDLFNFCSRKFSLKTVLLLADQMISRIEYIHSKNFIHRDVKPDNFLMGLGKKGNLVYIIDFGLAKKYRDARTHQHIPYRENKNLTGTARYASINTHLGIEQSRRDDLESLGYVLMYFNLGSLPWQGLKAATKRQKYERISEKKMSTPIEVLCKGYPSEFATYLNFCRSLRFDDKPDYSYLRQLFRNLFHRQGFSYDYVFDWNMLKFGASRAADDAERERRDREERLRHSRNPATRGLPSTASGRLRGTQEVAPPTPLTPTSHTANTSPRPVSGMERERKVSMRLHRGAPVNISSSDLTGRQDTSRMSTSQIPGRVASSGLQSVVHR
Calls of active or inactive are those of the source.
Classes used: active, inactive

- COMPOUND: "CCN1CCN(Cc2ccc(Nc3ncc(F)c(-c4cc(F)c5nc(C)n(C(C)C)c5c4)n3)nc2)CC1 [ABEMACICLIB]"
  CATEGORY_LABEL: "inactive"
- COMPOUND: "COc1ccc2c(OCc3nnc4ccc(-c5ccccc5)nn34)ccnc2c1 [AMG-208]"
  CATEGORY_LABEL: "inactive"
- COMPOUND: "O=C(O)c1ccc2c(c1)nc(Nc1cccc(Cl)c1)c1ccncc12 [SILMITASERTIB]"
  CATEGORY_LABEL: "inactive"
- COMPOUND: "NC[C@@](O)(c1ccc(Cl)cc1)c1ccc(-c2cn[nH]c2)cc1 [AT-13148]"
  CATEGORY_LABEL: "inactive"
- COMPOUND: "CNC(=O)c1cc(COc2nnc(Nc3ccc(Cl)cc3)c3ccoc23)ccn1 [TELATINIB]"
  CATEGORY_LABEL: "inactive"
- COMPOUND: "O=C(Nc1ccc(OC(F)(F)F)cc1)c1sccc1NCc1ccnc2ccccc12 [OSI-930]"
  CATEGORY_LABEL: "inactive"
- COMPOUND: "O=C(NOC[C@H](O)CO)c1ccc(F)c(F)c1Nc1ccc(I)cc1F [MIRDAMETINIB]"
  CATEGORY_LABEL: "inactive"
- COMPOUND: "COc1ccc(-c2ccc3ncc4c(c3c2)n(-c2ccc(N3CCNCC3)c(C(F)(F)F)c2)c(=O)n4C)cn1 [BGT-226 FREE BASE]"
  CATEGORY_LABEL: "inactive"
- COMPOUND: "CC(C)CC(=O)Nc1[nH]nc2c1CN(C(=O)C1CCN(C)CC1)C2(C)C [PHA-793887]"
  CATEGORY_LABEL: "inactive"
- COMPOUND: "Cn1c(=O)c(F)c(Nc2ccc(I)cc2F)c2c(=O)n(C[C@@H](O)CO)cnc21 [TAK-733]"
  CATEGORY_LABEL: "inactive"
- COMPOUND: "C=CC(=O)Nc1cc(Nc2nccc(-c3cn(C)c4ccccc34)n2)c(OC)cc1N(C)CCN(C)C [OSIMERTINIB]"
  CATEGORY_LABEL: "inactive"
- COMPOUND: "c1cc(OCCN2CCCCC2)cc(-c2n[nH]c3ccc(-c4nc[nH]n4)cc23)c1 [CC-401]"
  CATEGORY_LABEL: "active"
- COMPOUND: "Cc1ccc(C(=O)Nc2ccc(Oc3cc4cnn(C)c4cc3-c3cn[nH]c3)c(F)c2)c(=O)n1-c1ccc(F)cc1 [MERESTINIB]"
  CATEGORY_LABEL: "inactive"
- COMPOUND: "Cn1c(=O)n(-c2ccc(C(C)(C)C#N)cc2)c2c3cc(-c4cnc5ccccc5c4)ccc3ncc21 [DACTOLISIB]"
  CATEGORY_LABEL: "inactive"
- COMPOUND: "CN1CCN(c2nc(C3=C(c4c[nH]c5ccccc45)C(=O)NC3=O)c3ccccc3n2)CC1 [SOTRASTAURIN]"
  CATEGORY_LABEL: "inactive"
- COMPOUND: "S=C(NCc1ccc2c(c1)OCO2)N1CCN(c2ncnc3c2oc2ccccc23)CC1 [AMUVATINIB]"
  CATEGORY_LABEL: "inactive"
- COMPOUND: "COc1cc2nccc(Oc3ccc(NC(=O)C4(C(=O)Nc5ccc(F)cc5)CC4)cc3)c2cc1OC [CABOZANTINIB]"
  CATEGORY_LABEL: "inactive"

---

- SYSTEM_TESTED: Glycogen phosphorylase, liver form (Homo sapiens, UniProt P06737); further: in the data inactive means no Kd found up to 30 µM
- Sequence (P06737 whole entry): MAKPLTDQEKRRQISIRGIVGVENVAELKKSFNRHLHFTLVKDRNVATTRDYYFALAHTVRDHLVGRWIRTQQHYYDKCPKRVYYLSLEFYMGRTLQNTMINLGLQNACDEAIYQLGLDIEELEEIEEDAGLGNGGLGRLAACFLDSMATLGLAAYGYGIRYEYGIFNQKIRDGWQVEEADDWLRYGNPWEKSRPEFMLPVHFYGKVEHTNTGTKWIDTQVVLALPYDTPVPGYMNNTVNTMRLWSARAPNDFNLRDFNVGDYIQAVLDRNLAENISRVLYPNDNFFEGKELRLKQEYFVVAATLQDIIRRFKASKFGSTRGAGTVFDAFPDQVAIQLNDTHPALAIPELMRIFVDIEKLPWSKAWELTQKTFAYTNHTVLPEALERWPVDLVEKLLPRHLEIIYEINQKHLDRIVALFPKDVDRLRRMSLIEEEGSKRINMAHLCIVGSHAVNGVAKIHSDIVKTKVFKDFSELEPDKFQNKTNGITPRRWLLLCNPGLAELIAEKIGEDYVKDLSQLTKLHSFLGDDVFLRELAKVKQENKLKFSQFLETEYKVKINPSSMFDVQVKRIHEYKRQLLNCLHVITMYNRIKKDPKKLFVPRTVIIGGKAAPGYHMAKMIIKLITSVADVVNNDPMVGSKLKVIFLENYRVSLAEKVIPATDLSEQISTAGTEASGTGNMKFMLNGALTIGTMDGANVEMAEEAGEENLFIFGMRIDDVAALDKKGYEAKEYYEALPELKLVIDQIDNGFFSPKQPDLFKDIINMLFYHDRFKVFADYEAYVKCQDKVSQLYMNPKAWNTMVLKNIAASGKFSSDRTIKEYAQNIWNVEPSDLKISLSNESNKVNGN
- Format: subcellular, K-562, COLO 205, SK-N-BE(2) and MV-4-11, Cell lysate
- CONDITION_DETAILS: read-out: Kd apparent
Active and inactive are the calls of the source.

- MOLECULE: "Cc1c(NC(=O)OC[C@@H]2COCCN2)cn2ncnc(Nc3ccc4c(cnn4Cc4cccc(F)c4)c3)c12 [AC-480]"
  Kd: "> 30 µM (inactive)"
- MOLECULE: "C=CC(=O)Nc1cc(Nc2nccc(-c3cn(C)c4ccccc34)n2)c(OC)cc1N(C)CCN(C)C [OSIMERTINIB]"
  Kd: "> 30 µM (inactive)"
- MOLECULE: "COc1cc2nccc(Oc3ccc(NC(=O)C4(C(=O)Nc5ccc(F)cc5)CC4)cc3)c2cc1OC [CABOZANTINIB]"
  Kd: "> 30 µM (inactive)"
- MOLECULE: "C=CCn1c(=O)c2cnc(Nc3ccc(N4CCN(C)CC4)cc3)nc2n1-c1cccc(C(C)(C)O)n1 [ADAVOSERTIB]"
  Kd: "> 30 µM (inactive)"
- MOLECULE: "c1cc(OCCN2CCCCC2)cc(-c2n[nH]c3ccc(-c4nc[nH]n4)cc23)c1 [CC-401]"
  Kd: "> 30 µM (inactive)"
- MOLECULE: "O=c1[nH]c([C@@H]2CCCN2)nc2c1oc1ccc(Cl)cc12"
  Kd: "> 30 µM (inactive)"
- MOLECULE: "N#CCNC(=O)c1ccc(-c2ccnc(Nc3ccc(N4CCOCC4)cc3)n2)cc1 [MOMELOTINIB]"
  Kd: "> 30 µM (inactive)"
- MOLECULE: "Cn1c(=O)n(-c2ccc(C(C)(C)C#N)cc2)c2c3cc(-c4cnc5ccccc5c4)ccc3ncc21 [DACTOLISIB]"
  Kd: "> 30 µM (inactive)"

---

- SYSTEM_TESTED: Uncharacterized protein FLJ45252 (Homo sapiens, UniProt Q6ZSR9); further: in the data inactive means no Kd found up to 30 µM
- Sequence (Q6ZSR9 whole entry): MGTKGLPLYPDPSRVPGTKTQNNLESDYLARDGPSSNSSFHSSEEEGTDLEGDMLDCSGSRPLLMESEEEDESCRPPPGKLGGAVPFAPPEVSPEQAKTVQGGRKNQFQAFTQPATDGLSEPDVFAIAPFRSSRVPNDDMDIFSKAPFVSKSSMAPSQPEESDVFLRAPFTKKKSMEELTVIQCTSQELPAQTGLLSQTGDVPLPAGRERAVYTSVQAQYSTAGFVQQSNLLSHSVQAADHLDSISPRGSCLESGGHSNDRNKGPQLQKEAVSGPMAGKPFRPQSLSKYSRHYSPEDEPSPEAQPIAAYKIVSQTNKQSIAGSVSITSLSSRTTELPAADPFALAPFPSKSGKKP
- CONDITION_DETAILS: read-out: Kd apparent; k-562, colo 205, sk-n-be(2) and mv-4-11
Active and inactive are the calls of the source.
Classes used: yes (active), no (inactive)

- COMPOUND: "CC1(COc2ccc3c(c2)ncn3-c2ccc3cccc(N4CCC(N)CC4)c3n2)COC1 [CRENOLANIB]"
  SYSTEM_TESTED: "Uncharacterized protein FLJ45252 (Homo sapiens, UniProt Q6ZSR9)"
  CATEGORY_LABEL: "no"
- COMPOUND: "C=CCN(/C=C1/C(=O)O[C@H](COC)[C@@]2(C)C1=C(O)C(=O)C1=C2[C@H](OC(C)=O)C[C@]2(C)C(=O)CC[C@@H]12)CC=C [SONOLISIB]"
  SYSTEM_TESTED: "Uncharacterized protein FLJ45252 (Homo sapiens, UniProt Q6ZSR9)"
  CATEGORY_LABEL: "no"
- COMPOUND: "Cc1cc(C(=O)Nc2cc(Oc3ccc4nc(NC(=O)C5CC5)cn4n3)ccc2C)n(C)n1 [TAK-593]"
  SYSTEM_TESTED: "Uncharacterized protein FLJ45252 (Homo sapiens, UniProt Q6ZSR9)"
  CATEGORY_LABEL: "yes"
- COMPOUND: "CCc1cc2c(cc1N1CCC(N3CCOCC3)CC1)C(C)(C)c1[nH]c3cc(C#N)ccc3c1C2=O [ALECTINIB]"
  SYSTEM_TESTED: "Uncharacterized protein FLJ45252 (Homo sapiens, UniProt Q6ZSR9)"
  CATEGORY_LABEL: "no"
- COMPOUND: "COc1ccc(-c2ccc3ncc4c(c3c2)n(-c2ccc(N3CCNCC3)c(C(F)(F)F)c2)c(=O)n4C)cn1 [BGT-226 FREE BASE]"
  SYSTEM_TESTED: "Uncharacterized protein FLJ45252 (Homo sapiens, UniProt Q6ZSR9)"
  CATEGORY_LABEL: "no"
- COMPOUND: "O=S(=O)(c1cccc2c(O)nccc12)N1CCCNCC1 [HYDROXYFASUDIL]"
  SYSTEM_TESTED: "Uncharacterized protein FLJ45252 (Homo sapiens, UniProt Q6ZSR9)"
  CATEGORY_LABEL: "no"
- COMPOUND: "CC(C)(O)CC(=O)NCCn1ccc2ncnc(Nc3ccc(Oc4cccc(C(F)(F)F)c4)c(Cl)c3)c21 [TAK-285]"
  SYSTEM_TESTED: "Uncharacterized protein FLJ45252 (Homo sapiens, UniProt Q6ZSR9)"
  CATEGORY_LABEL: "no"

---

- SYSTEM_TESTED: Dual specificity mitogen-activated protein kinase kinase 6 (Homo sapiens, UniProt P52564); further: in the data inactive means no Kd found up to 30 µM
- Sequence (P52564 whole entry): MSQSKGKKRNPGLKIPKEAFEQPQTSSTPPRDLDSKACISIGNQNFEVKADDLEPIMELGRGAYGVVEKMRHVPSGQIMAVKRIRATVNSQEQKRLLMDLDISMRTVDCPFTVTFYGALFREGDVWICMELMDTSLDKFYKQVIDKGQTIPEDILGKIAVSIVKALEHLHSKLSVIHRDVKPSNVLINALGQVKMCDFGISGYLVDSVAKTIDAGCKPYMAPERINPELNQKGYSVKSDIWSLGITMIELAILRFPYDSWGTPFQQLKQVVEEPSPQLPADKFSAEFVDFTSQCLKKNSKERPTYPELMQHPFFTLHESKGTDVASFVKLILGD
The source made the active and inactive calls.
Here, each record is paired with measured Kd data.

- COMPOUND: "N#CCNC(=O)c1ccc(-c2ccnc(Nc3ccc(N4CCOCC4)cc3)n2)cc1 [MOMELOTINIB]"
  Kd: "> 30 µM (inactive)"
- COMPOUND: "COc1cc(Nc2ncc(F)c(Nc3ccc4c(n3)N(COP(=O)(O)O)C(=O)C(C)(C)O4)n2)cc(OC)c1OC [FOSTAMATINIB]"
  Kd: "> 30 µM (inactive)"
- COMPOUND: "Cc1ccc(C(=O)Nc2ccc(Oc3cc4cnn(C)c4cc3-c3cn[nH]c3)c(F)c2)c(=O)n1-c1ccc(F)cc1 [MERESTINIB]"
  Kd: "> 30 µM (inactive)"
- COMPOUND: "C=CC(=O)Nc1cc(Nc2nccc(-c3cn(C)c4ccccc34)n2)c(OC)cc1N(C)CCN(C)C [OSIMERTINIB]"
  Kd: "> 30 µM (inactive)"
- COMPOUND: "FC(F)(F)c1ccc(CNc2ccc(Cc3c[nH]c4ncc(Cl)cc34)cn2)cn1 [PEXIDARTINIB]"
  Kd: "> 30 µM (inactive)"
- COMPOUND: "Cc1cc(-c2cc(OC(=O)c3ccccc3)ccc2Cl)cc2nnc(Nc3ccc(OCCN4CCCC4)cc3)nc12 [TG100-801]"
  Kd: "> 30 µM (inactive)"
- COMPOUND: "O=S(=O)(c1cccc2cnccc12)N1CCCNCC1 [FASUDIL]"
  Kd: "> 30 µM (inactive)"
- COMPOUND: "COc1cccc2cc(-c3nc([C@H]4CC[C@H](C(=O)O)CC4)n4ncnc(N)c34)[nH]c12 [OSI-027]"
  Kd: "> 30 µM (inactive)"
- COMPOUND: "CCN(CCCOc1ccc2c(Nc3cc(CC(=O)Nc4cccc(F)c4)n[nH]3)ncnc2c1)CCOP(=O)(O)O [BARASERTIB]"
  Kd: "> 30 µM (inactive)"
- COMPOUND: "COc1cc2ncnc(Nc3ccc(O)cc3)c2cc1OC [WHI-P131]"
  Kd: "> 30 µM (inactive)"
- COMPOUND: "O=C(O)c1ccc2c(c1)nc(Nc1cccc(Cl)c1)c1ccncc12 [SILMITASERTIB]"
  Kd: "> 30 µM (inactive)"
- COMPOUND: "C=CCN(/C=C1/C(=O)O[C@H](COC)[C@@]2(C)C1=C(O)C(=O)C1=C2[C@H](OC(C)=O)C[C@]2(C)C(=O)CC[C@@H]12)CC=C [SONOLISIB]"
  Kd: "> 30 µM (inactive)"
- COMPOUND: "C[C@@H]1COC(Nc2ccc3ncnc(Nc4ccc(OCc5nccs5)c(Cl)c4)c3c2)=N1 [VARLITINIB]"
  Kd: "> 30 µM (inactive)"
- COMPOUND: "C#Cc1cccc(Nc2ncnc3cc4c(cc23)OCCOCCOCCO4)c1 [ICOTINIB]"
  Kd: "> 30 µM (inactive)"
- COMPOUND: "CN1CCN(c2nc(C3=C(c4c[nH]c5ccccc45)C(=O)NC3=O)c3ccccc3n2)CC1 [SOTRASTAURIN]"
  Kd: "> 30 µM (inactive)"
- COMPOUND: "COc1cc(F)c(F)c(Nc2ccc(I)cc2F)c1NS(=O)(=O)C1(C[C@H](O)CO)CC1 [REFAMETINIB]"
  Kd: "> 30 µM (inactive)"
